# assayed-system: T1, recombinant human IGF-II (Insulin-like Growth Factor II) (human, UniProt P01344 25-91, biotinylated (Biotinyl-IGF-II, GroPep) where immobilised in SPR, site not stated; not biotinylated in ITC and as SPR analyte)
# T1 construct: also called IGF2; IGF-2
# T1 sequence (P01344 25-91 limits assumed): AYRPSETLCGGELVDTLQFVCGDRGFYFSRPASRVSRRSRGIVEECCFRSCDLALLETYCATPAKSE
# experimental-protocol: SPR, IGF-II immobilised, steady state
measurement-label: Kd
Remember to quote the unit after the number.

Reference set, count: 3
IGF2R domain 11 E1544V (amino acids 1511-1650, C-terminal His6 tag, from Pichia pastoris) (receptor) NEHDDCQVTNPSTGHLFDLSSLSGRAGFTAAYSVKGLVYMSICGENENCPPGVGACFGQTRISVGKANKRLRYVDQVLQLVYKDGSPCPSKSGLSYKSVISFVCRPEAGPTNRPMLISLDKQTCTLFFSWHTPLACEQATHHHHHH; 52.7 nM
wild type IGF2R domain 11 (amino acids 1511-1650) with C-terminal His6 tag, from Pichia pastoris (receptor, also called WT; wild type domain 11) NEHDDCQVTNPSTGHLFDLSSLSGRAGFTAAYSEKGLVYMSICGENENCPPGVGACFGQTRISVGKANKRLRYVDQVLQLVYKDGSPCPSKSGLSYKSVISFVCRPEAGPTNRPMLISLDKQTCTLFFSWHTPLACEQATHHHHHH; 103 nM
IGF2R domain 11 E1544A (amino acids 1511-1650, C-terminal His6 tag, from Pichia pastoris) (receptor) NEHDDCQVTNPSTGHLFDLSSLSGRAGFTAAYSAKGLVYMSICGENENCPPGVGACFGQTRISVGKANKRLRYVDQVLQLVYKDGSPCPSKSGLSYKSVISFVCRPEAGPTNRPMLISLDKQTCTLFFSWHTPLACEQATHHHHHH; 37 nM

Give the reported Kd for this binder. IGF2R domain 11 E1544K (amino acids 1511-1650, C-terminal His6 tag, from Pichia pastoris) (receptor, also called enhanced mutant) NEHDDCQVTNPSTGHLFDLSSLSGRAGFTAAYSKKGLVYMSICGENENCPPGVGACFGQTRISVGKANKRLRYVDQVLQLVYKDGSPCPSKSGLSYKSVISFVCRPEAGPTNRPMLISLDKQTCTLFFSWHTPLACEQATHHHHHH
16.9 nM
